These measurements were taken from ChEMBL document CHEMBL3875149.

As shown below, each of these compounds has a reported A0.5 value.
- method.description: Antioxidant activity assessed as cupric reducing capacity after 1 hr by spectrophotometric analysis
- Format: functional
endpoint.name: A0.5 (µM)

{"columns": ["compound", "value.unit", "value.observed"],
 "data": [
  ["CCOC(=O)N1CCC(=NNC(=O)c2ccc(F)cc2C(F)(F)F)CC1", "µM", 25.6],
  ["Cc1c(C)c2c(c(C)c1O)CC[C@@](C)(CCC[C@H](C)CCC[C@H](C)CCCC(C)C)O2 [ALPHA-TOCOPHEROL]", "µM", 40.5],
  ["O=C(NN=C1CC(c2ccccc2)NC(c2ccccc2)C1)c1ccc(F)cc1 (centres undefined)", "µM", 59.6],
  ["O=[N+]([O-])c1ccc(NN=C2CC(c3ccccc3)NC(c3ccccc3)C2)c([N+](=O)[O-])c1 (centres undefined)", "µM", 29.2],
  ["O=C(NN=C1CC(c2ccccc2)NC(c2ccccc2)C1)c1ccc(F)cc1C(F)(F)F (centres undefined)", "µM", 88.2],
  ["CCOC(=O)N1CCC(=NNC(=O)c2ccc([N+](=O)[O-])cc2)CC1", "µM", 13.3],
  ["O=C(NN=C1CC(c2ccccc2)NC(c2ccccc2)C1)c1ccc([N+](=O)[O-])cc1 (centres undefined)", "µM", 17.8],
  ["COc1ccc(C(=O)NN=C2CC(c3ccccc3)NC(c3ccccc3)C2)cc1 (centres undefined)", "µM", 77.7],
  ["O=C(NN=C1CC(c2ccccc2)NC(c2ccccc2)C1)c1ccccc1 (centres undefined)", "µM", 45.4],
  ["Cc1cc(C(C)(C)C)c(O)c(C(C)(C)C)c1 [BUTYLATED HYDROXYTOLUENE]", "µM", 3.8],
  ["CCOC(=O)N1CCC(=NNC(=O)c2ccc(C(F)(F)F)cc2)CC1", "µM", 51.4],
  ["CCOC(=O)N1CCC(=NNC(=O)c2ccc(C(F)(F)F)cc2F)CC1", "µM", 27.3],
  ["CCOC(=O)N1CCC(=NNC(=O)c2ccc(Cl)cc2)CC1", "µM", 23.5],
  ["CCOC(=O)N1CCC(=NNC(=O)c2ccc(F)cc2)CC1", "µM", 4.16]
]}
